src = FireProtDB (doi:10.1016/j.bpj.2010.04.076)

# change of melting temperature, mutant - wild type (higher = more stable) listing for each entry below
B1: Adenylate kinase, P16304 (parent)
chain: MNLVLMGLPGAGKGTQGERIVEDYGIPHISTGDMFRAAMKEETPLGLEAKSYIDKGELVPDEVTIGIVKERLGKDDCERGFLLDGFPRTVAQAEALEEILEEYGKPIDYVINIEVDKDVLMERLTGRRICSVCGTTYHLVFNPPKTPGICDKDGGELYQRADDNEETVSKRLEVNMKQTQPLLDFYSEKGYLANVNGQQDIQDVYADVKDLLGGLKK

Variants of: B1
experimental setup: Bacillus subtilis (strain 168); pH 7; Thermal; CD; KH2PO4 10mM; transition: 2; reversible: yes; structure 2EU8; whole UniProt chain shown
Give the number; °C is assumed, so skip it.

Below, 2 variants whose answers are already recorded.
>>> val("Q199R")
1.1
>>> val("Q199R G213Q")
-9.1

Query: Param item = Q199R T179I ; retrieve measured change of melting temperature, mutant - wild type (higher = more stable).
Response: 4.9

Query: Next variant up: Q199R A193V
Response: 6.2
